- System: DLD-1
- experiment-description: NCI tumour cell line growth inhibition, 48 h
Activity calls are given as the source filed them. Rule as the data show it: active = GI50 up to about 1.1 µM and inactive = higher.
Catalogue of GI50 readings, one per entry.

[[record]]
molecule = "Oc1ccc2c(c1)CC[N+]1=C2CCC2CCCC21 (configuration not stated) [QUINDONIUM BROMIDE]"
experimental_readout = "GI50"
experimental_result = "> 100 µM (inactive)"


In: Record O=C1c2ccccc2N2OC3(N4CCCC4)CCCCC3C12c1ccccc1 (configuration not stated) : what is its GI50 with DLD-1?
Out: 20 µM (inactive)

In: Checklist item: GI50 tested on DLD-1, entry COc1ccccc1NC(=O)C(CC(C(=O)Nc1ccccc1OC)/C(C)=N/NC(=O)c1ccccc1O)/C(C)=N/NC(=O)c1ccccc1O (configuration not stated) , value?
Out: 57.5 µM (inactive)

---

- System: KM12
- experiment-description: NCI tumour cell line growth inhibition, 48 h
Calls of active or inactive are those of the source. Rule as the data show it: active = GI50 up to about 1.1 µM and inactive = higher.
In this section, each of the molecules is paired with its reported GI50.

[[record]]
molecule = "CN1CCc2ccccc2C(C(=O)c2ccc3c(c2)OCO3)C1=O (stereo not given)"
experimental_result = "> 100 µM (inactive)"

[[record]]
molecule = "CC1CCCC(C(=O)CC2CC(=O)NC(=O)C2)C1=O (stereo not given)"
experimental_result = "> 100 µM (inactive)"

[[record]]
molecule = "Cc1cc(S(=O)(=O)Nc2nnc3c(C(F)(F)F)cc(Cl)cn23)c(S)cc1Cl"
experimental_result = "94.8 µM (inactive)"


In: For the molecule CC1=C2C3=C(C)C(=O)C(C)(C)CC[C@@]3(C)[C@]2(C)CCC(C)(C)C1=O , what GI50 is on record?
Out: > 100 µM (inactive)

In: Would you mind telling me what GI50 value was observed for CO/N=C/c1c(-c2ccc(Cl)cc2)c(/C=N/OC)n2c1sc1ccccc12 ?
Out: > 100 µM (inactive)

---

- System: MCF7
- experiment-description: NCI tumour cell line growth inhibition, 48 h
The source made the active and inactive calls. No stated cut-off is given here; in the data, active = GI50 up to about 1.1 µM and inactive = higher.
# output must be one of class 1 for active, class 0 for inactive

Illustrative cases are given below, each with its answer.
[[record]]
compound = "C[C@H](c1ccccc1)n1c(N)c(-c2nc3ccccc3s2)c2ccc([N+](=O)[O-])cc2c1=O"
test_target = "MCF7"
discrete_label = "class 0"

[[record]]
compound = "O=C(/N=S(/NC(=O)c1ccccc1)C(Cl)(Cl)Cl)c1ccccc1 (centres undefined)"
test_target = "MCF7"
discrete_label = "class 0"


In: Please state the recorded outcome for this compound: COc1ccc(Cc2nc3cc(C(F)(F)F)ccc3n2C[C@@H]2CCCN3CCCCC23)cc1 (some centres undefined)
Out: class 0

In: Test call, this compound: NC(=O)[C@H](Cc1ccc(O)cc1)NC1=C(Cl)C(=O)c2c(O)ccc(O)c2C1=O
Out: class 0

In: Could you kindly confirm the outcome this assay logged for CCCCCCCCCCCCCCCCOC[C@@H](COC(c1ccccc1)(c1ccccc1)c1ccccc1)O[PH](=S)OC (some centres undefined) ?
Out: class 0

In: For this compound, state the assay outcome: CNC(=O)N(CCC#N)[C@H]1CCCC[C@@H]1N(C(=O)NC)c1ccccc1
Out: class 0

In: So what was the verdict on CCC(/C=C/C1OC(=O)C=CC1C)=C\C(C)C/C=C/C(C)=C/C(C)C(=O)C(C)C(O)C(C)C/C(C)=C/C(=O)O (centres undefined) in this test?
Out: class 1

In: Each compound tested received a call. Report the one for Cc1cc(Cc2c(F)c(F)c(Cc3cc(C)no3)c(F)c2F)on1 .
Out: class 0

In: What did this assay record as the result for C=CCNC(=O)/C(Cc1cc(Br)c(OC)c(Br)c1O)=N\O ?
Out: class 0
